These data points were gathered from paper PMC11855827.

Entries and their measured inhibition at 110 µM follow.
system: C. elegans; test: microbe, parasite or virus in culture; conditions: Caenorhabditis elegans, 0 h, read-out: Percentage of motility inhibition 0 h
MEASURED_PROPERTY: inhibition at 110 µM (%)

>>> df
                                    compound  result_value
 0  C/C=C1\C(=O)C[C@H]2[C@@H]3CCC4=CC(=O)CC[C@]4(C)[C@H]3CC[C@]12C             0
 1    COc1ccc(-c2cc(=O)c3c(O)cc(O)cc3o2)cc1O            13
 2  Cc1c([C@H](C)[C@@H]2NC[C@@H](C)C[C@H]2O)ccc2c1C[C@H]1[C@H]2CC=C2C[C@@H](O)CC[C@@]21C             9
 3  C=C1[C@H]2C[C@@]3([C@@H]1O)[C@@H](CC2=O)[C@]12[C@@H]4C[C@H]3[C@H]1N(CC)C[C@]4(C)CC[C@@H]2O             5
 4     COc1c(O)cc(O)c2c(=O)cc(-c3ccccc3)oc12            23
 5  COc1cc(O)c2c(=O)c(OC)c(-c3ccc(OC)c(O)c3)oc2c1             0
 6  COc1ccc(C[C@@H]2c3cc(Oc4cc(C[C@@H]5c6cc(OC)c(OC)cc6CCN5C)ccc4O)c(OC)cc3CCN2C)cc1            25
 7  OC[C@H]1O[C@@H](O[C@H]2[C@H](O)[C@@H](O)C(O)O[C@@H]2CO)[C@H](O)[C@@H](O)[C@H]1O (mixture of isomers)            54
 8  CC1=C[C@H](O)CC(C)(C)[C@H]1/C=C/C(C)=C/C=C/C(C)=C/C=C/C=C(C)/C=C/C=C(C)/C=C/C1=C(C)C[C@@H](O)CC1(C)C            13
 9  C=C[C@@]1(C)CC[C@H]2C(=CC[C@@H]3[C@]2(C)CCC[C@@]3(C)C(=O)O)C1             0
10         COc1ccc(-c2coc3cc(O)ccc3c2=O)cc1O            16
11  C[C@H]1[C@H](C)CC[C@]2(C(=O)O)CC[C@]3(C)C(=CC[C@@H]4[C@@]5(C)CCC(=O)C(C)(C)[C@@H]5CC[C@]43C)[C@H]12            18
12     COc1cc(O)c2c(c1)O[C@H](c1ccccc1)CC2=O             1
13                     O=c1ccc2cc3ccoc3cc2o1            14
14            CCCSc1ccc2nc(NC(=O)OC)[nH]c2c1            17
15  O=c1c(O)c(-c2ccc(O)cc2)oc2c(O)c(O)cc(O)c12             4

---

Entries and their measured inhibition at 110 µM follow.
tested on: C. elegans; experiment: microbe, parasite or virus in culture; details: Caenorhabditis elegans, 24 h, read-out: Percentage of motility inhibition 24 h, Table S2, C. elegans SS assay, 110 μM, 24 h, averages of 4 data points

COMPOUND	TESTED_ON	inhibition at 110 µM / %
CC(=O)OC(C)(C)/C=C/C(=O)[C@](C)(O)[C@H]1[C@H](O)C[C@@]2(C)[C@@H]3CC=C4[C@@H](C=C(O)C(=O)C4(C)C)[C@]3(C)C(=O)C[C@]12C [Cucurbitacin E]	C. elegans	11
O=P(O)(O)OC(Cn1cncn1)(Cn1cncn1)c1ccc(F)cc1F [Fosfluconazole]	C. elegans	0
CC[C@@]1(O)C(=O)OCc2c1cc1n(c2=O)Cc2cc3ccccc3nc2-1 [Camptothecin]	C. elegans	6
CC(=O)NC[C@H]1CN(c2ccc(N3CCSCC3)c(F)c2)C(=O)O1 [Sutezolid]	C. elegans	4
CC(C)=CCC[C@](C)(O[C@@H]1O[C@H](CO)[C@@H](O)[C@H](O)[C@H]1O)[C@H]1CC[C@]2(C)[C@@H]1[C@H](O)C[C@@H]1[C@@]3(C)CC[C@H](O)C(C)(C)[C@@H]3[C@@H](O[C@@H]3O[C@H](CO)[C@@H](O)[C@H](O)[C@H]3O)C[C@]12C [Ginsenoside Rg1]	C. elegans	0
O=c1c(O)c(-c2ccc(O)c(O)c2)oc2cc(O)cc(O)c12 [Quercetin]	C. elegans	11
CCn1cc(C(=O)O)c(=O)c2cnc(N3CCNCC3)nc21 [Pipemidic acid]	C. elegans	14
OC[C@H]1O[C@@H](O[C@@H]2OC=C[C@H]3[C@H](O)[C@@H]4O[C@]4(CO)[C@@H]23)[C@H](O)[C@@H](O)[C@@H]1O [Catalpol]	C. elegans	16
O=c1c(-c2ccc(O)cc2)coc2cc(O[C@@H]3O[C@H](CO)[C@@H](O)[C@H](O)[C@H]3O)cc(O)c12 [Genistin]	C. elegans	19
O=c1cc[nH]c(=O)[nH]1 [Uracil]	C. elegans	0
C/C1=C\C[C@]2(C(C)C)CC[C@@](C)(O2)[C@@H](O)CC/C(C)=C/CC1 [Incensole]	C. elegans	29
COc1cc([C@H]2Oc3cc([C@H]4Oc5cc(O)cc(O)c5C(=O)[C@@H]4O)ccc3O[C@@H]2CO)ccc1O [Silybin A]	C. elegans	20
CC12CCC(C1)C(C)(C)C2O (centres unmarked) [Fenchyl alcohol]	C. elegans	0
CC[C@H]1OC(=O)[C@H](C)[C@@H](O[C@H]2C[C@@](C)(OC)[C@@H](O)[C@H](C)O2)[C@H](C)[C@@H](O[C@@H]2O[C@H](C)C[C@H](N(C)C)[C@H]2O)[C@](C)(O)C[C@@H](C)CN(C)[C@H](C)[C@@H](O)[C@]1(C)O [Azithromycin]	C. elegans	37
